Target: Diphosphomevalonate decarboxylase (Homo sapiens)
Assay: Compound was evaluated for its inhibitory activity against MevPP decarboxylase
measuredMetric: IC50 (µM)

> print(dat)
                        structurestring  observed
1  CN(CC(=O)O)C(=O)COP(=O)(O)OP(=O)(O)O       0.3

====

Target: Diphosphomevalonate decarboxylase (Homo sapiens, UniProt P53602)
Sequence (P53602 whole entry): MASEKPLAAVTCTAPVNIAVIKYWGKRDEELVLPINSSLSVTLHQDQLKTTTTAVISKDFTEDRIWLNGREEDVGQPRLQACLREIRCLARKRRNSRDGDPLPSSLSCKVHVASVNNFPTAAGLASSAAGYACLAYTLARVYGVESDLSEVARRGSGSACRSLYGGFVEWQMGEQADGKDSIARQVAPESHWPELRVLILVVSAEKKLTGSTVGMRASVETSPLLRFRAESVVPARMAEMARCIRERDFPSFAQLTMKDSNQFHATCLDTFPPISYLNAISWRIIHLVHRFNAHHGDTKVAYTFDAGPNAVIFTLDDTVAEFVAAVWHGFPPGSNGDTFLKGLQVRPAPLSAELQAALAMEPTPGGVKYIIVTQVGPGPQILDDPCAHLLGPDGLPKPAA
Assay: Compound was evaluated for its inhibitory activity against Mevalonate 5-pyrophosphate decarboxylase
measuredMetric: IC50

> print(dat)
                 structurestring  observed
1  O=C(O)CSCCOP(=O)(O)OP(=O)(O)O    150 nM
